# Target System: leptin receptor on reporter cells (SIE-luciferase reporter cells; Ba/F3-lepR reporter cells), P48357
# Sequence (P48357 22-1165): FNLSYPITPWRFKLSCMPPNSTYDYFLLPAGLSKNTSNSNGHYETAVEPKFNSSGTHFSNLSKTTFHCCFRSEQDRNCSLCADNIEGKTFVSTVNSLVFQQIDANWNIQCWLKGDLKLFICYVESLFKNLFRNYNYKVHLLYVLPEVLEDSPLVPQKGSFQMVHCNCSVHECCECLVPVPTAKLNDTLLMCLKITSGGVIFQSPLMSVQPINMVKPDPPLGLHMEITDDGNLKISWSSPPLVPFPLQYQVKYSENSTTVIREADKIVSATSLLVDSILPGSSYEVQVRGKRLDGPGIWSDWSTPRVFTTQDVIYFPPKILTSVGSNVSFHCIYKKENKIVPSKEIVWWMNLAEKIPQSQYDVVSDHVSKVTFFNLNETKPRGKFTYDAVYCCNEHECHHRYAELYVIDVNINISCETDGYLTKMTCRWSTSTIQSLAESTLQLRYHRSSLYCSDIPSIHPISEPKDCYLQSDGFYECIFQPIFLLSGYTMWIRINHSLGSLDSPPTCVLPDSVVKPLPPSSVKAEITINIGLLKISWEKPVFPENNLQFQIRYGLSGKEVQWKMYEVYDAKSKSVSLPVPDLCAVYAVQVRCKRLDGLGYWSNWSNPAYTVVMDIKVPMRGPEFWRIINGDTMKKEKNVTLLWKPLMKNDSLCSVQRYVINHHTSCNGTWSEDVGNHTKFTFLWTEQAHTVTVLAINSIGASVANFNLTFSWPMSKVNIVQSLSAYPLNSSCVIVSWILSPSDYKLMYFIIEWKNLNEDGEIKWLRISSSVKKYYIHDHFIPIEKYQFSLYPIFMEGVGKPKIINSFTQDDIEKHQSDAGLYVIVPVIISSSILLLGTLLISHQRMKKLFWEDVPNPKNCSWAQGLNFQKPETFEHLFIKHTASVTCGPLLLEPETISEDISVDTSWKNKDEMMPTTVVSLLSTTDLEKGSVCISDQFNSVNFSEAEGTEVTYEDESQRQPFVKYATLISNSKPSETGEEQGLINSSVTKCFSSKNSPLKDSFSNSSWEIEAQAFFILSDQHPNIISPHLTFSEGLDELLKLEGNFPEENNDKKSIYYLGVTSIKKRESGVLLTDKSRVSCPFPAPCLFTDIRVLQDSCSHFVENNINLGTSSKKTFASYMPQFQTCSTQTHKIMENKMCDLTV
# Assay Protocol: cell-based or functional assay

Binder	EC50(M), Luciferase assay
S2H3 (antibody, V domains shown) VH: QVQLLQSGGGVVQPGRSLRLSCAASGFTFSSYGMHWVRQAPGKGLEWVAVISYDGSNKYYADSVKGRFTISRDNSKNTLYLQMNSLRAEDTAVYYCAGVRENYFTYWGQGTLVTVSS VL: EIVLTQSPGTLSLSPGERATLSCRASQSVSSNYLAWYQQKPGQAPRLLIYGASSRPTGIPDRFSGSGSGTDFTLTISRLEPEDFAVYYCQQYAASPLTFGGGTKLEIK	3.28e-10 M

Where do these numbers come from? They come from patent US20220275097A1.
